For each record, write down the corresponding IC50.
- TARGET_OR_SYSTEM: KRas G12S (Homo sapiens, UniProt P01116, G12S);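 note: TR-FRET displacement binding to KRas, read after one hour incubation at room temperature, IC50 from four-parameter fit of percent of control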
- Sequence (P01116 1-169 isoform P01116-2 G12S): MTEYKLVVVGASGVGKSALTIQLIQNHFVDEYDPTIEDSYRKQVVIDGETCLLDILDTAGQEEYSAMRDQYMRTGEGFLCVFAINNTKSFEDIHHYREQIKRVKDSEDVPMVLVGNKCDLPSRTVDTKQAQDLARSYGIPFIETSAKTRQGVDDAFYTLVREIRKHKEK
- EXPERIMENT: biochemical

Reference set (2 entries):
>>> result("C#Cc1c(F)ccc2cc(O)cc(-c3ncc4c(N5CC6C(=O)NC(=O)C6C5)nc(OC[C@@]56CCCN5C[C@H](F)C6)nc4c3F)c12 (stereo partly drawn)")
"≤ 2 nM"
>>> result("CCc1c(F)ccc2cc(O)cc(-c3ncc4c(N5CCCCCCC5)nc(OC[C@@]56CCCN5C[C@H](F)C6)nc4c3F)c12")
"≤ 2 nM"

API: the following record is the query input.
Q: Reported IC50 for CCc1c(F)ccc2cc(O)cc(-c3ncc4c(N5C[C@@H]6C[C@H](C5)[C@H](O)C6)nc(OCC5(CN6CCCC6)CC5)nc4c3F)c12 : what is it?
Ans: ≤ 2 nM

* * *

- TARGET_OR_SYSTEM: KRas G12D (Homo sapiens, UniProt P01116, G12D);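 note: TR-FRET displacement binding assay on KRas, read after a one-hour incubation at room temperature, IC50 fitted from percent-of-control values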
- Sequence (P01116 1-169 isoform P01116-2 G12D): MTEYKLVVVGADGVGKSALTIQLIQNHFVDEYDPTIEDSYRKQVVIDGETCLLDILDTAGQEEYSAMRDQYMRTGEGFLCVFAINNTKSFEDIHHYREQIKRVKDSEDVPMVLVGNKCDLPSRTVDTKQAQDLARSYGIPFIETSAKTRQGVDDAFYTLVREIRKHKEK
- EXPERIMENT: biochemical
QUANTITY_KIND: IC50

For each of the molecules below, note its IC50.
1. CCc1c(F)ccc2cc(O)cc(-c3ncc4c(N5CCCn6nc(C(=O)N7CCOCC7)cc6C5)nc(OC[C@@]56CCCN5C[C@H](F)C6)nc4c3F)c12
2. CCc1c(F)ccc2cc(O)cc(-c3ncc4c(N5CCCOC(C)(C)C5)nc(OC[C@@]56CCCN5C[C@H](F)C6)nc4c3F)c12
3. C[C@@]1(O)CCCN(c2nc(OC[C@@]34CCCN3C[C@H](F)C4)nc3c(F)c(-c4cc(O)cc5ccc(F)c(Br)c45)ncc23)C1

Ans:
1. ≤ 2 nM
2. 606 nM
3. ≤ 2 nM

* * *

- Tested on: pERK in PSN1 cells
- EXPERIMENT: Inhibition of KRas phosphorylation of ERK (Cisbio HTRF pERK assay)
- EXPERIMENTAL_SETUP: Homo sapiens, PSN1, 3 h, read-out: Inhibition (HTRF IC50) of KRas-mediated Phosphorylation of ERK, PSN1
QUANTITY_KIND: IC50

>>> result("O=C1NC[C@]2(CCCN(c3nc(OC[C@@]45CCCN4C[C@H](F)C5)nc4c(F)c(-c5cc(O)cc6ccc(F)c(Cl)c56)ncc34)C2)N1")
"≥ 10 µM"
>>> result("CCc1c(F)ccc2cc(O)cc(-c3ncc4c(N5C[C@H](C)C[C@@H](O)C5)nc(OC[C@@]56CCCN5C[C@H](F)C6)nc4c3F)c12")
"≥ 10 µM"

Okay, next one:
Q: Lookup: IC50 / pERK in PSN1 cells / CCc1c(F)ccc2cc(O)cc(-c3ncc4c(N5CCN6C(=O)NC(=O)C6C5)nc(OC[C@@]56CCCN5C[C@H](F)C6)nc4c3F)c12 (stereo partly drawn)
Ans: ≥ 10 µM

* * *

- TARGET_OR_SYSTEM: KRas G12C (Homo sapiens, UniProt P01116, G12C)
- Sequence (P01116 1-169 isoform P01116-2 G12C): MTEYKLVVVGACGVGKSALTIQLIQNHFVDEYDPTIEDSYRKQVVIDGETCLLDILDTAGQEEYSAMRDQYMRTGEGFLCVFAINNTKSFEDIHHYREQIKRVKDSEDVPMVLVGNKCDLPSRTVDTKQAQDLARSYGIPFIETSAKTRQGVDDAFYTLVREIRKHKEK
- EXPERIMENT: biochemical
Answer each item with its documented pIC50.
One number for each entry, as −log10 of the molar value.

# per-item lookup of pIC50; items listed below
1. C#Cc1c(F)ccc2cc(O)cc(-c3ncc4c(N5CCCC(O)C5)nc(OCCN(C)C)nc4c3F)c12 (centres unmarked) [Example 387]
2. Fc1c(-c2cccc3cccc(F)c23)ncc2c(N3CCCC4(CC(F)C4)C3)nc(OCC34CCCN3CCC4)nc12 (centres unmarked) [Example 234]
3. Cc1cc2[nH]ncc2c(-c2ncc3c(N4CCCC(C)(O)C4)nc(OC[C@@]45CCCN4C[C@H](F)C5)nc3c2F)c1C (some centres unmarked) [Example 471]
4. CC1CC(O)CCN(c2nc(OCC34CCCN3CCC4)nc3c(F)c(-c4cccc5cccc(F)c45)ncc23)C1 (centres unmarked) [Example 116]
5. Fc1c(-c2cccc3cccc(F)c23)ncc2c(Nc3cnc4cnccn34)nc(OCC34CCCN3CCC4)nc12 [Example 34]
6. Cc1cccc2cccc(-c3ncc4c(N5CCCC6(CC(=O)N6)C5)nc(OCC56CCCN5CCC6)nc4c3F)c12 (centres unmarked) [Example 450]

Ans:
[7.02, 5.79, 6.34, 5.36, 4.46, 6.63]

List pIC50 for every entry below, keeping the order given.
1. NS(=O)(=O)CC1CCCN(c2nc(OCC34CCCN3CCC4)nc3c(F)c(-c4cccc5cccc(CO)c45)ncc23)C1 (centres unmarked) [Example 439]
2. Cn1ncc2ccc(Nc3nc(OCC45CCCN4CCC5)nc4c(F)c(-c5cccc6cccc(F)c56)ncc34)cc21 [Example 99]
3. CN(C)C(=O)c1cc2n(n1)CCCN(c1nc(OCC34CCCN3CCC4)nc3c(F)c(-c4cccc5cccc(F)c45)ncc13)C2 [Example 260]
4. C#Cc1c(F)ccc2cccc(-c3ncc4c(N5CCC[C@@](C)(O)C5)nc(OCC56CCCN5CCC6)nc4c3F)c12 [Example 14]
5. OC1CCC12CCCN(c1nc(OCC34CCCN3CCC4)nc3c(F)c(-c4cccc5cccc(F)c45)ncc13)C2 (centres unmarked) [Example 233]

Ans:
[5.60, 5.08, 6.23, 7.29, 5.21]
